# Test system: Plasmodium falciparum
# method: Calibr Malaria Delayed Death Assay SOP
# Assay type: functional, organism-based
# Parameters: scale not given: in the data most compounds retested in dose-response had high values
# settings: concentration 4.99e-06 (unit not given; other assays of the set use mol/L)
About 1,200 (3.2%) of roughly 38,000 compounds showed an effect of 50% or more. The median lay at about -58%. Many of the other results were omitted from the sample, so strong results are more common in it than they were.
# if value of Percent Effect reaches -40%, tag Criterion met; if it stays below, tag Criterion not met

>  <compound>
COCCN(C/C=C/c1ccccc1)Cc1ccccn1

>  <classAssignment>
Criterion met

$$$$
>  <compound>
COc1ccccc1CC(C)CC(=O)NC(C)C (stereo not drawn)

>  <classAssignment>
Criterion not met

$$$$
>  <compound>
CCOc1cncc(N2CCN(c3ccccc3F)CC2)n1

>  <classAssignment>
Criterion not met

$$$$
>  <compound>
NCc1ccc(Oc2cccc(Cl)c2Cl)cc1

>  <classAssignment>
Criterion met

$$$$
>  <compound>
COCCNC(=O)NCc1ccc(OC(C)C)c(F)c1

>  <classAssignment>
Criterion not met

$$$$
>  <compound>
COc1cccc(Cl)c1-c1cc(CN)ccc1F

>  <classAssignment>
Criterion met

$$$$
>  <compound>
CCc1ccsc1C(=O)NC(C#N)CC(C)C (stereo not drawn)

>  <classAssignment>
Criterion not met

$$$$
